src = paper PMC11501026

- ASSAY_NAME: in situ brain/choroid plexus perfusion: CNS uptake of [^3H]-arginine, [^3H]-ADMA and [^14C]-sucrose (multiple-time and single-time uptake analysis)
- TEST_SETTINGS: male, BALB/c, mouse, caudate nucleus, Difference (ADMA minus Sucrose), 20 mins, 5ml/min; mean
Counter-ions that a name gives are not always drawn.
MEASUREMENT_KIND: Kp at 20 min, 62.5 nM
Reply with the value as a number alone.

Exam item: # input compound: CN(C)C(N)=NCCC[C@H](N)C(=O)O [ADMA, N^G,N^G-dimethylarginine dihydrochloride] ; wanted: its Kp at 20 min, 62.5 nM
Marked response: 0.256

###

- ASSAY_NAME: cross-inhibition, in situ perfusion: [^3H]-ADMA with 100 μM unlabelled L-arginine
- Format: in vivo, mouse
- TEST_SETTINGS: male, Balb/c, mouse, brain homogenate, other: in situ brain perfusion, with 100 µM unlabelled L-arginine, Difference (ADMA minus Sucrose), homogenate, + 100uM Arg, 10 mins, Balb/c ♂, 5ml/min; mean
Counter-ions that a name gives are not always drawn.
MEASUREMENT_KIND: Kp at 10 min, 62.5 nM
Reply with the value as a number alone.

Exam item: # input molecule: CN(C)C(N)=NCCC[C@H](N)C(=O)O [ADMA, N^G,N^G-dimethylarginine dihydrochloride] ; wanted: its Kp at 10 min, 62.5 nM
Marked response: 0.0265

###

- Tested on: [3H]-ADMA transport across the blood-brain and blood-CSF barriers
- ASSAY_NAME: self-inhibition, in situ perfusion: [^3H]-ADMA with 100 μM unlabelled ADMA
- Assay type: in vivo, mouse
- TEST_SETTINGS: male, Balb/c, mouse, hypothalamus, other: in situ brain perfusion, with unlabelled ADMA 100 µM, Difference (ADMA minus Sucrose), hypothalamus, + 100uM un-labelled ADMA, 10 mins, Balb/c ♂, 5ml/min; mean
Counter-ions that a name gives are not always drawn.
MEASUREMENT_KIND: Kp at 10 min, 62.5 nM
Reply with the value as a number alone.

Exam item: # input compound: CN(C)C(N)=NCCC[C@H](N)C(=O)O [ADMA, N^G,N^G-dimethylarginine dihydrochloride] ; wanted: its Kp at 10 min, 62.5 nM
Marked response: 0.0972

###

- ASSAY_NAME: in situ brain/choroid plexus perfusion: CNS uptake of [^3H]-arginine, [^3H]-ADMA and [^14C]-sucrose (multiple-time and single-time uptake analysis)
- TEST_SETTINGS: male, BALB/c, mouse, cerebellum, [3H] ADMA and [14C] Sucrose uptake, 20 mins, 5ml/min; mean
Structures can show the parent of a compound that is named as a salt.
MEASUREMENT_KIND: Kp at 20 min, 62.5 nM
Reply with the value as a number alone.

Exam item: # input compound: CN(C)C(N)=NCCC[C@H](N)C(=O)O [ADMA, N^G,N^G-dimethylarginine dihydrochloride] ; wanted: its Kp at 20 min, 62.5 nM
Marked response: 0.3

###

- ASSAY_NAME: self-inhibition, in situ perfusion: [^3H]-ADMA with 100 μM unlabelled ADMA
- Assay type: in vivo, mouse
- TEST_SETTINGS: male, BALB/c, mouse, choroid plexus, other: in situ brain perfusion, with unlabelled ADMA 100 µM, [3H] ADMA + [14C] Sucrose + 100uM un-labelled ADMA, 10 mins, Balb/c ♂, 5ml/min; mean; read-out: uptake into choroid plexus
Structures can show the parent of a compound that is named as a salt.
MEASUREMENT_KIND: Kp at 10 min, 62.5 nM

Exam item: # input compound: CN(C)C(N)=NCCC[C@H](N)C(=O)O [ADMA, N^G,N^G-dimethylarginine dihydrochloride] ; wanted: its Kp at 10 min, 62.5 nM
Marked response: 0.627

###

- Tested on: [3H]-ADMA transport across the blood-brain and blood-CSF barriers
- ASSAY_NAME: cross-inhibition, in situ perfusion: [^3H]-ADMA with 100 μM unlabelled L-arginine
- Format: in vivo, mouse
- TEST_SETTINGS: male, Balb/c, mouse, pineal gland, other: in situ brain perfusion, with unlabelled L-arginine 100 µM, Difference (ADMA minus Sucrose), pineal gland, + 100uM Arg, 10 mins, Balb/c ♂, 5ml/min; mean
Where a name gives a salt, the structure may show the parent alone.
MEASUREMENT_KIND: Kp at 10 min, 62.5 nM
Reply with the value as a number alone.

Exam item: # input compound: CN(C)C(N)=NCCC[C@H](N)C(=O)O [ADMA, N^G,N^G-dimethylarginine dihydrochloride] ; wanted: its Kp at 10 min, 62.5 nM
Marked response: 0.613

###

Below, each entry is listed alongside its reported Kp at 30 min, 62.5 nM.
- ASSAY_NAME: capillary depletion analysis after in situ brain perfusion
- Format: in vivo, mouse
- TEST_SETTINGS: male, BALB/c, mouse, endothelial cell-enriched pellet (capillary depletion), other: in situ brain perfusion, [3H] ADMA + [14C] Sucrose, 30 mins, Balb/c ♂, 5ml/min; individual mice; read-out: uptake, pellet
Structures can show the parent of a compound that is named as a salt.
Reply with the value as a number alone.

OC[C@H]1O[C@@](CO)(O[C@H]2O[C@H](CO)[C@@H](O)[C@H](O)[C@H]2O)[C@@H](O)[C@@H]1O [[^14C]-sucrose, reference compound] :: 0.00308

Now consider a different compound.
Exam item: # input compound: CN(C)C(N)=NCCC[C@H](N)C(=O)O [ADMA, N^G,N^G-dimethylarginine dihydrochloride] ; wanted: its Kp at 30 min, 62.5 nM
Marked response: 0.0184

###

- ASSAY_NAME: cross-inhibition, in situ perfusion: [^3H]-ADMA with 100 μM unlabelled L-arginine
- Format: in vivo, mouse
- TEST_SETTINGS: male, Balb/c, mouse, pellet, other: in situ brain perfusion, with 100 µM unlabelled L-arginine, [3H] ADMA + [14C] Sucrose + 100uM Arg, 10 mins, Balb/c ♂, 5ml/min; mean; read-out: uptake, pellet
Structures can show the parent of a compound that is named as a salt.
MEASUREMENT_KIND: Kp at 10 min, 62.5 nM
Reply with the value as a number alone.

Exam item: # input molecule: CN(C)C(N)=NCCC[C@H](N)C(=O)O [ADMA, N^G,N^G-dimethylarginine dihydrochloride] ; wanted: its Kp at 10 min, 62.5 nM
Marked response: 0.011

###

- ASSAY_NAME: in situ brain/choroid plexus perfusion: CNS uptake of [^3H]-arginine, [^3H]-ADMA and [^14C]-sucrose (multiple-time and single-time uptake analysis)
- TEST_SETTINGS: male, BALB/c, mouse, pineal gland, uptake into pineal gland, [3H] ADMA + [14C] Sucrose, 30 mins, Balb/c ♂, 5ml/min; mean
Counter-ions that a name gives are not always drawn.
MEASUREMENT_KIND: Kp at 30 min, 62.5 nM
Reply with the value as a number alone.

Exam item: # input compound: CN(C)C(N)=NCCC[C@H](N)C(=O)O [ADMA, N^G,N^G-dimethylarginine dihydrochloride] ; wanted: its Kp at 30 min, 62.5 nM
Marked response: 0.614

###

- ASSAY_NAME: in situ brain/choroid plexus perfusion: CNS uptake of [^3H]-arginine, [^3H]-ADMA and [^14C]-sucrose (multiple-time and single-time uptake analysis)
- TEST_SETTINGS: male, BALB/c, mouse, frontal cortex, [3H] ADMA and [14C] Sucrose uptake, 20 mins, 5ml/min; mean
Structures can show the parent of a compound that is named as a salt.
MEASUREMENT_KIND: Kp at 20 min, 62.5 nM

Exam item: # input compound: CN(C)C(N)=NCCC[C@H](N)C(=O)O [ADMA, N^G,N^G-dimethylarginine dihydrochloride] ; wanted: its Kp at 20 min, 62.5 nM
Marked response: 0.302

###

- ASSAY_NAME: in situ brain/choroid plexus perfusion: CNS uptake of [^3H]-arginine, [^3H]-ADMA and [^14C]-sucrose (multiple-time and single-time uptake analysis)
- TEST_SETTINGS: male, BALB/c, mouse, frontal cortex, Difference (ADMA minus Sucrose), 2.5 mins, 5ml/min; mean
Where a name gives a salt, the structure may show the parent alone.
MEASUREMENT_KIND: Kp at […], 62.5 nM
Reply with the value as a number alone.

Exam item: # input compound: CN(C)C(N)=NCCC[C@H](N)C(=O)O [ADMA, N^G,N^G-dimethylarginine dihydrochloride] ; wanted: its Kp at […], 62.5 nM
Marked response: 0.0986

###

- ASSAY_NAME: capillary depletion analysis after in situ brain perfusion
- Assay type: in vivo, mouse
- TEST_SETTINGS: male, BALB/c, mouse, capillary depletion supernatant (brain parenchyma), other: in situ brain perfusion, [3H] ADMA and [14C] Sucrose uptake, supernatant, CONTROL, 10 mins, Balb/c ♂, 5ml/min; individual mouse
Counter-ions that a name gives are not always drawn.
MEASUREMENT_KIND: Kp at 10 min, 62.5 nM
Reply with the value as a number alone.

Exam item: # input compound: CN(C)C(N)=NCCC[C@H](N)C(=O)O [ADMA, N^G,N^G-dimethylarginine dihydrochloride] ; wanted: its Kp at 10 min, 62.5 nM
Marked response: 0.119
